Values were extracted from FireProtDB (doi:10.1016/0022-2836(92)90564-z).

B1: Ribonuclease, P00648 (parent)
chain: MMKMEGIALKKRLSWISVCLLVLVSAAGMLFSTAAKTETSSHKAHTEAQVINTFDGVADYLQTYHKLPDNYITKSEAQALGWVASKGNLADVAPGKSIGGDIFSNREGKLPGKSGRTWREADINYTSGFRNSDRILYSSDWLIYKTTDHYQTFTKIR

Variants of: B1
Assay Setup: Bacillus amyloliquefaciens; pH 6.3; 25 °C; Urea; Fluorescence; MES 1.00 M; NaCl 613 mM; reversible: yes; structure 1BNI; whole UniProt chain shown
Provide the reported ddG of mutation (higher = less stable) of each item.
Could you give me the number in kcal/mol? Just the number is fine.

Query: Fill in: ddG of mutation (higher = less stable) of "D101A" is ___
Response: 3.1

Query: Need ddG of mutation (higher = less stable) of "V92T" , thanks.
Response: 2.44

Query: Report ddG of mutation (higher = less stable) for "I123V" please.
Response: 0.88
